This collection of values is drawn from paper PMC6213309.

tested on: E. coli ATCC25922; settings: ATCC25922, 18 h
Ends that are not written are not given here.
Exercise: state measured MIC in the presence of Ca2+ for each of the substances provided.

Example entries begin here.
FPRRWQWRRPF-NH2 [FP-PF]; 8 µM
KWRRWQWRRWK-NH2 [KW-WK]; 8 µM

For every listed record, write down its MIC in the presence of Ca2+.
1. FWRRWQWRRWF-NH2 [FW-WF]
2. KKRRWQWRRKK-NH2 [KK-KK]

1: 8 µM; 2: 16 µM

====

Exercise: state measured MIC in the presence of Zn2+ for each of the substances provided.
tested on: E. coli ATCC25922; conditions: ATCC25922, 18 h
Ends that are not written are not given here.
Numbers only, in µM.

Example entries begin here.
KKRRWQWRRKK-NH2 [KK-KK]; 8
KWRRWQWRRWK-NH2 [KW-WK]; 8
FPRRWQWRRPF-NH2 [FP-PF]; 8

Which MIC in the presence of Zn2+ value belongs to FWRRWQWRRWF-NH2 [FW-WF] ?
4
